Measured Target: SpSla1-D1-D2
Assay Method Text: SPOT peptide array binding signal intensity (averaged, normalized) (arbitrary units (background-subtracted, floor 0; scale differs between SH3 domains)); higher = stronger binding of the SH3 domain to the peptide
Attribute Measured: SPOT peptide array binding signal intensity

Binder: IKTRSVPKIPSIESV
Relation Operator: =
Measurement: 4
--
Binder: VPKEPAPAPPPEPDM
Relation Operator: =
Measurement: 8
--
Binder: HPRFVSPRIPSRIVK
Relation Operator: =
Measurement: 1.5
--
Binder: HRRRRVFSIPSLKSI
Relation Operator: ≤
Measurement: 0
--
Binder: KKIRLIFTYPSTVGR
Relation Operator: =
Measurement: 5
--
Binder: NLDRSKISLPDFDDE
Relation Operator: ≤
Measurement: 0
--
Binder: KFIPSRPAPKPPSSA
Relation Operator: ≤
Measurement: 0
